- target: T1, Human β-Klotho (human, UniProt Q86Z14 1-996)
- T1 construct: human β-Klotho, recombinant protein bought from R&D Systems; source: bought: R&D Systems (cat# 5889-KB-050)
- T1 sequence (looked up): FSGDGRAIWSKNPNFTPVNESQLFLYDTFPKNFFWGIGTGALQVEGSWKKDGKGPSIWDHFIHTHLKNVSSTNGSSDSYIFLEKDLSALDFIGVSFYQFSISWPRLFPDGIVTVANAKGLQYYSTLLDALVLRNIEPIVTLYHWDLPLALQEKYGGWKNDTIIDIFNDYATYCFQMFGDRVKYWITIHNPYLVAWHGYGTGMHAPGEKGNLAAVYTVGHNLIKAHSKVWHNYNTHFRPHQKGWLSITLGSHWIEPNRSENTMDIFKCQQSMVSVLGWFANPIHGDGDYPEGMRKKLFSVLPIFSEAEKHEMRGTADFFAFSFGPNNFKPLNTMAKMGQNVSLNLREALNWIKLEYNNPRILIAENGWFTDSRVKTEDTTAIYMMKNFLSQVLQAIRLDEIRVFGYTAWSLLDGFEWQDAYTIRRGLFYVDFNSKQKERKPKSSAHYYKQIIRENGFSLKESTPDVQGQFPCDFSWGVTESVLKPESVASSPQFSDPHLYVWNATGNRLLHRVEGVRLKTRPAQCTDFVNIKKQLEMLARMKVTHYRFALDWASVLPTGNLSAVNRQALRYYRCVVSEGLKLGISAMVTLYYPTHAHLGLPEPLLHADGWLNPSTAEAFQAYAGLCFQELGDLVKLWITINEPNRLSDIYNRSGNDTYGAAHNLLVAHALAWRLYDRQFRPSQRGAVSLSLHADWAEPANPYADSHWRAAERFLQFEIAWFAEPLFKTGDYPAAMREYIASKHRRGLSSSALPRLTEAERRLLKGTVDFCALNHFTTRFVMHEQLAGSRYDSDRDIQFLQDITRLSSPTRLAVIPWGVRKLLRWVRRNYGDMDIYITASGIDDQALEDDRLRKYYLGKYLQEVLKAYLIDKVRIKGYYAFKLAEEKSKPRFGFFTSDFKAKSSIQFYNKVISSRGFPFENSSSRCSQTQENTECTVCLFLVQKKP
- method-notes: SPR; Biacore 8K; FGF21s covalently immobilised on CM5 chip by amine coupling (about 700-900 RU); human β-Klotho injected as 2.5-fold series 250 to 1.024 nM at 30 μl/min; 25 °C; HBS-EP+ (10 mM HEPES pH 7.4, 150 mM NaCl, 3 mM EDTA, 0.05% polysorbate 20); global fit, 1:1 Langmuir model
- cond: both partners purified
assay-endpoint: kon (M⁻¹ s⁻¹)
Please reply with the bare figure in M⁻¹ s⁻¹ and do not write the unit itself.

# example entries with known answers
binder: htFGF21 variant with S195G, P199G, and S200G mutations (htM3) (ligand, human, UniProt Q9NSA1 33-209, looked up, human FGF21 with S195G, P199G and S200G; A Gly from the TEV site probably remains at the N-terminus (surmised); not shown: Trx, N-terminal, cleaved) DSSPLLQFGGQVRQRYLYTDDAQQTEAHLEIREDGTVGGAADQSPESLLQLKALKPGVIQILGVKTSRFLCQRPDGALYGSLHFDPEACSFRELLLEDGYNVYQSEAHGLPLHLPGNKSPHRDPAPRGPARFLPLPGLPPALPEPPGILAPQPPDVGSSDPLGMVGGGQGRSPSYAS
quantity-unit: M⁻¹ s⁻¹
kon: 152000
--
binder: wild type human FGF21 purified without heating (nFGF21) (ligand, UniProt Q9NSA1 33-209, looked up, human fibroblast growth factor 21 (FGF21), residues 33-209; differs only in that the 100 °C step was left out of the purification; The TEV site ENLYFQ/G stood between Trx and FGF21, so a Gly probably remains before residue 33 after cleavage (surmised); also called fibroblast growth factor 21; wild type FGF21; source: E. coli Rosetta (DE3), purified without heating; not shown: Trx, N-terminal, …) DSSPLLQFGGQVRQRYLYTDDAQQTEAHLEIREDGTVGGAADQSPESLLQLKALKPGVIQILGVKTSRFLCQRPDGALYGSLHFDPEACSFRELLLEDGYNVYQSEAHGLPLHLPGNKSPHRDPAPRGPARFLPLPGLPPALPEPPGILAPQPPDVGSSDPLSMVGPSQGRSPSYAS
quantity-unit: M⁻¹ s⁻¹
kon: 126000
--
binder: wild type human FGF21 purified through heat treatment (htFGF21) (ligand, UniProt Q9NSA1 33-209, looked up, human fibroblast growth factor 21 (FGF21), residues 33-209; The TEV site ENLYFQ/G stood between Trx and FGF21, so a Gly probably remains before residue 33 after cleavage (surmised); also called htWT; wild type htFGF21; not shown: Trx, N-terminal, cleaved) DSSPLLQFGGQVRQRYLYTDDAQQTEAHLEIREDGTVGGAADQSPESLLQLKALKPGVIQILGVKTSRFLCQRPDGALYGSLHFDPEACSFRELLLEDGYNVYQSEAHGLPLHLPGNKSPHRDPAPRGPARFLPLPGLPPALPEPPGILAPQPPDVGSSDPLSMVGPSQGRSPSYAS
quantity-unit: M⁻¹ s⁻¹
kon: 121000
--
binder: htFGF21 variant with S195G, P199G, S200G, Q201H, and A208T mutations (htM5) (ligand, human, UniProt Q9NSA1 33-209, looked up, human FGF21 with S195G, P199G, S200G, Q201H and A208T; A Gly from the TEV site probably remains at the N-terminus (surmised); also called M5 variant; not shown: Trx, N-terminal, cleaved) DSSPLLQFGGQVRQRYLYTDDAQQTEAHLEIREDGTVGGAADQSPESLLQLKALKPGVIQILGVKTSRFLCQRPDGALYGSLHFDPEACSFRELLLEDGYNVYQSEAHGLPLHLPGNKSPHRDPAPRGPARFLPLPGLPPALPEPPGILAPQPPDVGSSDPLGMVGGGHGRSPSYTS
quantity-unit: M⁻¹ s⁻¹
kon: 164000

Now consider a different binder.
Problem: Given the entry htFGF21 variant with Q201H and A208T mutations (htM2) (ligand, human, UniProt Q9NSA1 33-209, looked up, human FGF21 with Q201H and A208T; A Gly from the TEV site probably remains at the N-terminus (surmised); not shown: Trx, N-terminal, cleaved) DSSPLLQFGGQVRQRYLYTDDAQQTEAHLEIREDGTVGGAADQSPESLLQLKALKPGVIQILGVKTSRFLCQRPDGALYGSLHFDPEACSFRELLLEDGYNVYQSEAHGLPLHLPGNKSPHRDPAPRGPARFLPLPGLPPALPEPPGILAPQPPDVGSSDPLSMVGPSHGRSPSYTS , report its measured kon.
Solution: 120000
